Assay read-out IC50; system under study: human PDE10A (Homo sapiens (Human)).
Sequence (Q9Y233 other isoform, or with tags, fused parts or gaps): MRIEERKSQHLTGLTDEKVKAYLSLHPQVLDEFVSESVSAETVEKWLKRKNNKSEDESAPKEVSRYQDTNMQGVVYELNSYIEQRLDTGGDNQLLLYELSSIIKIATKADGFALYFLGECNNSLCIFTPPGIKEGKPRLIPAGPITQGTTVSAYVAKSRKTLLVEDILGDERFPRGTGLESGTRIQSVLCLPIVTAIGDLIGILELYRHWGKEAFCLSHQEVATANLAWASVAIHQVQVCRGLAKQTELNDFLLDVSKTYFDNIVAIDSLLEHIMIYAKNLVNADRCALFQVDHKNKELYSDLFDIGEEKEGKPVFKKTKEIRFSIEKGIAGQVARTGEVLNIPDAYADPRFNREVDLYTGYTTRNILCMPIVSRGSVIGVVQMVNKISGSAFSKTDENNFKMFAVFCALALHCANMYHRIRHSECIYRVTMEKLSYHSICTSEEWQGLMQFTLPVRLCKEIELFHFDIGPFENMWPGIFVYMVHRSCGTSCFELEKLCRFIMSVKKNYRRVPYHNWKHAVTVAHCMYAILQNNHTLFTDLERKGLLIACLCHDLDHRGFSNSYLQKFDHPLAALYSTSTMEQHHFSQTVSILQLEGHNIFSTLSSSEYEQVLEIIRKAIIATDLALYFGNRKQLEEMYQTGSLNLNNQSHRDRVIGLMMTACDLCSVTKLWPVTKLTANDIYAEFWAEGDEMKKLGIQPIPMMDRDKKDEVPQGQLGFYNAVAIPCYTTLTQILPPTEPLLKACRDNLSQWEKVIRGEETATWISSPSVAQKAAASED
Report as a plain number; the unit nM is understood.

>>> df
                             compoundstring  outcomemeasure  endpointresult
0  Cc1ncc(C)n2nc(CCc3nc(N4CCCC4=O)cn3C)nc12            IC50              18
1  Cc1c(C(F)(F)F)nc2ccc(C#Cc3nc(N4CCCC4=O)cn3C)nn12            IC50            75.5
2  Cc1nc(C#Cc2nc(N3CCCC3=O)cn2C)nc2c(C)cccc12            IC50             4.6
3  Cc1c(C(F)(F)F)nc2ccc(CCc3nc(N4CCCC4=O)cn3C)nn12            IC50             117
4  Cc1cc(C)n2nc(CCc3nc(N4CCCC4=O)cn3C)nc2n1            IC50             176

Item: Cc1ncc(C)n2nc(/C=C/c3nc(N4CCN(C)C4=O)cn3C)nc12 | IC50: 162

Item: Cc1ncc(C)n2nc(/C=C/c3nc(N4CCCC4=O)cn3C)nc12 | IC50: 54.6

Item: Cc1ncc(C)n2nc(CCc3nc(N4CCCC4=O)cn3CC(F)F)nc12 | IC50: 46.9
